Assignment: determine reported IC50 for the given compounds.
target: IGFR-1 (Homo sapiens, UniProt P08069); construct: Kinases are expressed as either kinase domains or full length constructs; made in house; test: Kinase inhibition assay, IGFR-1 (Table 2); format: biochemical; details: Table 2, kinase inhibition class
Sequence (P08069 31-1367): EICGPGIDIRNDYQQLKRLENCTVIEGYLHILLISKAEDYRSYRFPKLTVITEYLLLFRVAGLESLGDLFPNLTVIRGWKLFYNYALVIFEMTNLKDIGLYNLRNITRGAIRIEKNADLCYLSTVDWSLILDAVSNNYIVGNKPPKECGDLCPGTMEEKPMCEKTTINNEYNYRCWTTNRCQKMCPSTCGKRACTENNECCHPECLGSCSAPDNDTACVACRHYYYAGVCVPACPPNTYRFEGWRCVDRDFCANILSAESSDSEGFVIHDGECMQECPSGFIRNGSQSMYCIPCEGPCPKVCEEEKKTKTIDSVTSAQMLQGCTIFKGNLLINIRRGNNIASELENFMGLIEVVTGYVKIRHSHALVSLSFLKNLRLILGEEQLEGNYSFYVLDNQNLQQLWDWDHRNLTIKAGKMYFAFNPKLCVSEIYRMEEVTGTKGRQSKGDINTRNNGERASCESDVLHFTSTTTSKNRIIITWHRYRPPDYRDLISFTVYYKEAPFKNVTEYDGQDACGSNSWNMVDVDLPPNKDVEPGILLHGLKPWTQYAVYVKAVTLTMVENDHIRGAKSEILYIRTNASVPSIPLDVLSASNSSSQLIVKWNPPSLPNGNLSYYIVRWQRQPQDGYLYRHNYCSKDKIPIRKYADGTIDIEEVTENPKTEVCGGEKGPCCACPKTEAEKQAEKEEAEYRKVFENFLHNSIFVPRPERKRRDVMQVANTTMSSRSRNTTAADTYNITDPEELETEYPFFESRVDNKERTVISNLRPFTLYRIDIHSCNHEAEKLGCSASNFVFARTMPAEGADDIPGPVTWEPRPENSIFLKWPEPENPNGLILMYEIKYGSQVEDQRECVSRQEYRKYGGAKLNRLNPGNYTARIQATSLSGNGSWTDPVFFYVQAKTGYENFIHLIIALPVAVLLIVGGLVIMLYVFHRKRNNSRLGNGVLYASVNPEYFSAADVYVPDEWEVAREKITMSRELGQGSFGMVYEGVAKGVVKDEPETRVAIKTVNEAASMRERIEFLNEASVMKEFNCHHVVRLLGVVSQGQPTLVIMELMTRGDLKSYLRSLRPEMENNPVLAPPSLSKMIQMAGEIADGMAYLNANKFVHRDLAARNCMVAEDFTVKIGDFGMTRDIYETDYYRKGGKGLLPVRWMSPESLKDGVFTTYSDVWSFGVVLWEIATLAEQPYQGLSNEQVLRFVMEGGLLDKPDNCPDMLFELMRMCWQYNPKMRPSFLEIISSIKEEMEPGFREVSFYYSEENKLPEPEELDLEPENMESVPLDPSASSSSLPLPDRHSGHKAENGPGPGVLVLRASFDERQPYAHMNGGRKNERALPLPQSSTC

SMILES CODE: COc1cc(Nc2ncnc(-n3c(NCc4ccc(Cl)cc4)nc4ccccc43)n2)cc(OC)c1OC
IC50: 6.76 to 8.69 µM

SMILES CODE: COc1cc(Nc2ncnc(-n3c(NCc4ccccn4)nc4ccccc43)n2)cc(OC)c1OCCn1ccnn1
IC50: 4.24 to 6.19 µM

SMILES CODE: COC(=O)c1cc(OC)c(OC)cc1Nc1ncnc(-n2c(N)nc3ccccc32)n1
IC50: 0.949 to 5.7 µM

SMILES CODE: COc1cc(Nc2ncnc(Nc3ccc4nn(C)cc4c3)n2)cc(OC)c1OC
IC50: < 0.982 µM

SMILES CODE: CN(c1cccc(Cl)c1)c1ncnc(Nc2ncccn2)n1
IC50: > 14.3 µM

Kindly give each listed record's IC50.
1. Cc1ccc2c(c1)CCCN2c1ncnc(NCCN2CCOCC2)n1
2. COc1ccc(Nc2ncnc(Nc3cccc(-c4ccnc(C)n4)c3)n2)cc1OC
3. NC(=O)c1ccc(Nc2ncnc(-c3cccnc3NCc3cccs3)n2)cc1

> 12.7 µM
0.963 to 5.78 µM
> 11.2 µM
